test system: Serum; experiment: Metabolic stability in Sprague-Dawley rat serum assessed as formation of (S)-(N,N-dimethylphenylalanyl)-(2S,3S)-3[(p-formylphenoxyl)leucyl]-(S)-leucine) after 30 mins by HPLC; format: ADME, cell-free; settings: 0.5 h

compound: CC(C)C[C@@H]1NC(=O)[C@@H](NC(=O)[C@H](Cc2ccccc2)N(C)C)[C@H](C(C)C)Oc2ccc(cc2)[C@@H](O)CNC1=O
Activity: Stable
--
compound: CO[C@H]1CNC(=O)[C@H](CC(C)C)NC(=O)[C@@H](NC(=O)[C@H](Cc2ccccc2)N(C)C)[C@H](C(C)C)Oc2ccc1cc2
Activity: Stable
--
compound: CC(C)C[C@@H]1NC(=O)[C@@H](NC(=O)[C@H](Cc2ccccc2)N(C)C)[C@H](C(C)C)Oc2ccc(cc2)CCNC1=O [DIHYDROSANJOININE A]
Activity: Stable
